Each recorded value in this set is attributed to the supplement of paper PMC12645437.

Entries and their measured log2 fold change of degron read counts follow.
Biological target: T1, CRBN, Q96SW2;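 note: pooled lentiviral library of zinc finger degron-EGFP fusions in mCherry-positive Jurkat cells, FACS-sorted after compound exposure, with degron abundance counted by next-generation sequencing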
T1 chain: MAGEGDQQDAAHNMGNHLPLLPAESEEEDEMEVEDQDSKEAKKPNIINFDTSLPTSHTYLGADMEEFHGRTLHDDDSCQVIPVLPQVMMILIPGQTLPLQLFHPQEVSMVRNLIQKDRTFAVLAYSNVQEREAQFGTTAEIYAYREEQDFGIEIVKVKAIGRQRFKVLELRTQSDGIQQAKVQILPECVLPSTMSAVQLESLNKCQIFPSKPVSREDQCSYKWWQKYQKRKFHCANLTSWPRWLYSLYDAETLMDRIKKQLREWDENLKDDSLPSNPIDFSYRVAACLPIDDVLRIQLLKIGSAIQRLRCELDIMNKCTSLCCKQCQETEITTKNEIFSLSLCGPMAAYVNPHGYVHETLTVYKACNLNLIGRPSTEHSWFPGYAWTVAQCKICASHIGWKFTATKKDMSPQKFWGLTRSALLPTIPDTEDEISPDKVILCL
Assay: log2 fold change of degron read counts, EGFP-low vs EGFP+ sorted cells (limma voom), compound-induced degradation; higher = more compound-induced degradation of the degron-EGFP fusion; degrons are variants of IKZF1/3 zinc finger 2; compound dose not given here
Details: Jurkat; 18 h; compound: compound 22 (5-morpholino-thalidomide)
The full ranking holds about 8,300 sequences; the median of “log2 fold change of degron read counts, EGFP-low vs EGFP+ sorted cells (limma voom), compound-induced degradation” is about -1.1, and the highest 2% start at about 3.2. This excerpt belongs to a sample that is enriched for the highest values.

Lookup: # get_value(readout='log2 fold change of degron read counts', item= LCCNQCGFHCTQKGNLLRHIKL [46L_47C_49N_50Q_52G_53F_54H_55C_67L_, Q9UKT9] )
Found: -2.61

Lookup: # get_value(readout='log2 fold change of degron read counts', item= FICEICGAVFTQKGNLLRHIKL [46F_47I_49E_50I_52G_53A_54V_55F_67L_, Q9UKT9] )
Found: 1.25

Lookup: # get_value(readout='log2 fold change of degron read counts', item= FTCNQCGRLFTQKGNLLRHIKL [46F_47T_49N_50Q_52G_53R_54L_55F_67L_, Q9UKT9] )
Found: -2.81

Note: attention shifts to another entry.
Lookup: # get_value(readout='log2 fold change of degron read counts', item= FFCEQCGAIFTQKGNLLRHIKL [46F_47F_49E_50Q_52G_53A_54I_55F_67L_, Q9UKT9] )
Found: 0.676
